- Tgt: human melanocortin-4 receptor (human, UniProt P32245 1-332)
- Sequence (P32245 whole entry): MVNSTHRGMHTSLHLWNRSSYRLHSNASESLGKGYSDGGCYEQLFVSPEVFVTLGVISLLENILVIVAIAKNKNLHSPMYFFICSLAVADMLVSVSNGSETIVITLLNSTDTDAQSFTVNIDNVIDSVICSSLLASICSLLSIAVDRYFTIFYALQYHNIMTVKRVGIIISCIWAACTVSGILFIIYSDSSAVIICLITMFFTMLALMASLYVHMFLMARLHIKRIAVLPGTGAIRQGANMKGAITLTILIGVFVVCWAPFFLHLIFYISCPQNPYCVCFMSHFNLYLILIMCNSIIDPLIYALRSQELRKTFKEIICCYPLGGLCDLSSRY
- Assay Notes: cell-based or functional assay
Positions of bridges follow the written chain, without caps; N, C: chain ends. Non-standard residues stand in square brackets, D forms with d. dPhe(2-Cl) = N[C@H](Cc1ccccc1Cl)C(=O)O; dPhe(2-Me) = Cc1ccccc1C[C@@H](N)C(=O)O; dPhe(4-F) = N[C@H](Cc1ccc(F)cc1)C(=O)O; dPhe(2-F) = N[C@H](Cc1ccccc1F)C(=O)O; Orn = NCCC[C@H](N)C(=O)O
Result Type: EC50, cAMP, 0.1 ng/mL Doxycycline (nM)

| Binder | EC50, cAMP, 0.1 ng/mL Doxycycline (nM) |
| --- | --- |
| RDQXRWK (N-terminal Ac; D-Phe(4-CN) 4; lactam Asp 2-Lys 7; C-terminal NH2, also called No. 90) [Ac-Arg-cyclo(Asp-Gln-D-Phe(4-CN)-Arg-Trp-Lys)-NH2] | 4 |
| Ac-RES[dPhe(4-F)]RW[Orn]-NH2 (lactam 2-7; SMILES CC(=O)N[C@@H](CCCNC(=N)N)C(=O)N[C@H]1CCC(=O)NCCC[C@@H](C(N)=O)NC(=O)[C@H](Cc2c[nH]c3ccccc23)NC(=O)[C@H](CCCNC(=N)N)NC(=O)[C@@H](Cc2ccc(F)cc2)NC(=O)[C@H](CO)NC1=O, also called No. 65) [Ac-Arg-cyclo(Glu-Ser-D-Phe(4-F)-Arg-Trp-Orn)-NH2] | 1 |
| XDQXRWK (N-terminal Ac; D-Arg 1; D-Phe(4-CN) 4; lactam Asp 2-Lys 7; C-terminal NH2, also called No. 81) [Ac-D-Arg-cyclo(Asp-Gln-D-Phe(4-CN)-Arg-Trp-Lys)-NH2] | 4 |
| Ac-REP[dPhe(2-F)]RW[Orn]-NH2 (lactam 2-7; SMILES CC(=O)N[C@@H](CCCNC(=N)N)C(=O)N[C@H]1CCC(=O)NCCC[C@@H](C(N)=O)NC(=O)[C@H](Cc2c[nH]c3ccccc23)NC(=O)[C@H](CCCNC(=N)N)NC(=O)[C@@H](Cc2ccccc2F)NC(=O)[C@@H]2CCCN2C1=O, also called No. 66) [Ac-Arg-cyclo(Glu-Pro-D-Phe(2-F)-Arg-Trp-Orn)-NH2] | 5 |
| Ac-REN[dPhe(2-Cl)]RW[Orn]-NH2 (lactam 2-7; SMILES CC(=O)N[C@@H](CCCNC(=N)N)C(=O)N[C@H]1CCC(=O)NCCC[C@@H](C(N)=O)NC(=O)[C@H](Cc2c[nH]c3ccccc23)NC(=O)[C@H](CCCNC(=N)N)NC(=O)[C@@H](Cc2ccccc2Cl)NC(=O)[C@H](CC(N)=O)NC1=O, also called No. 84) [Ac-Arg-cyclo(Glu-Asn-D-Phe(2-Cl)-Arg-Trp-Orn)-NH2] | 0.633 |

I: Ac-REP[dPhe(4-F)]RW[Orn]-NH2 (lactam 2-7; also: acetate salt, acetate salt form; also called Ex 67) [Ac-Arg-cyclo(Glu-Pro-D-Phe(4-F)-Arg-Trp-Orn)-NH2]
II: Ac-R[Orn]N[dPhe(4-F)]RWE-NH2 (lactam 2-7, also called No. 70) [Ac-Arg-cyclo(Orn-Asn-D-Phe(4-F)-Arg-Trp-Glu)-NH2]
III: Ac-REN[dPhe(2-Me)]RW[Orn]-NH2 (lactam 2-7, also called No. 73) [Ac-Arg-cyclo(Glu-Asn-D-Phe(2-Me)-Arg-Trp-Orn)-NH2]
IV: Ac-RES[dPhe(2-F)]RW[Orn]-NH2 (lactam 2-7, also called No. 58) [Ac-Arg-cyclo(Glu-Ser-D-Phe(2-F)-Arg-Trp-Orn)-NH2]
Request: Please give the order of these binders when sorted by EC50, cAMP, 0.1 ng/mL Doxycycline, largest value leading. Put the labels in the requested order and list them out.
Result: IV, I, III, II

Data provenance is patent US20100311648A1.
